Cited source for all entries: patent US8207329B2

test: Absorption spectra obtained in toluene at room temperature; format: physicochemical; conditions: Table 3; zinc chlorins in toluene at room temperature
endpoint: λmax (nm), B
Give bare numbers, in nm.

Would you please look over these solved cases?
C=Cc1cc2[n]3c1C=C1C=CC(=N1)C(c1c(C)cc(C)cc1C)=c1ccc([n]1[Zn]3)=CC1=NC(=C2)C(C)(C)C1	413
Cc1cc(C)c(C2=c3cc(C#C[Si](C(C)C)(C(C)C)C(C)C)c4[n]3[Zn][n]3c(ccc3C=C3N=C(C=4)CC3(C)C)C=C3C=CC2=N3)c(C)c1 [ZnC-M^10E^13]	412

Now consider the entry below.
Request: Looking for the measured λmax (nm), B of CC(C)[Si](C#Cc1cc2[n]3c1C=C1CC(C)(C)C(=N1)C=c1cc(C#C[Si](C(C)C)(C(C)C)C(C)C)c([n]1[Zn]3)=CC1=NC(=C2)C=C1)(C(C)C)C(C)C , can you help?
Result: 421
